Cited source for all entries: patent US10034861B2

Below is a list of entries, each paired with its recorded pIC50 value.
biological target: PDE1A (Homo sapiens (Human), UniProt P54750); assay: biochemical; assay type: biochemical; settings: 15 nM tritium labelled cAMP, 1 hr at room temperature, SPA beads
Sequence (P54750 whole entry): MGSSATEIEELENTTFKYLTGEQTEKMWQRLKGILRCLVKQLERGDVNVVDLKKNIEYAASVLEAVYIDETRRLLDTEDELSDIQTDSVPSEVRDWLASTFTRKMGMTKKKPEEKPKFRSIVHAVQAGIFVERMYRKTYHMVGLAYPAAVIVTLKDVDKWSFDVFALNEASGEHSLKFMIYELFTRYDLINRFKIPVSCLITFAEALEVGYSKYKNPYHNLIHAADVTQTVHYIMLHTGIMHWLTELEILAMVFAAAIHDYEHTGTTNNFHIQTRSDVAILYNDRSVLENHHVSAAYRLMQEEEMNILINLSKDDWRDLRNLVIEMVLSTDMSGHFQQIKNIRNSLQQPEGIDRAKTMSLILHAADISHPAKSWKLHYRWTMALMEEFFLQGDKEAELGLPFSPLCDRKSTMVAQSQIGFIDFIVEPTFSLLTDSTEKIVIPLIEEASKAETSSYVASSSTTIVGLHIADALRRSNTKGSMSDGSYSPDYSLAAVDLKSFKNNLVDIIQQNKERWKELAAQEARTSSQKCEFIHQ
Value format note: pIC50 is -log10 of concentration (mol/L); just state the number.

// map "CCOc1ncccc1-c1cc(CCc2ncn(C)n2)c2c(n1)c(C)nn2C(C)C" to recorded pIC50 (system: PDE1A (Homo sapiens (Human), UniProt P54750))
7.64

Could you do the same for CCOc1ncccc1-c1cc(NCc2ccn(C)n2)c2c(n1)c(C)nn2C(C)CC (single isomer, unassigned) , please?
8.02

Continuing:
What measured pIC50 is associated with "CCOc1ncccc1-c1cc(NCc2ccccc2F)c2c(n1)c(C)nn2C(C)C" on PDE1A (Homo sapiens (Human), UniProt P54750)?
7.21

Repeat for the following compound: "CCOc1ncccc1-c1cc(OCc2cnc(C)o2)c2c(n1)c(C)nn2C(C)C"
7.85

Proceed to "Cc1nn(C(C)C)c2c(NCc3cnn(C)c3)cc(-c3ncco3)nc12"
7.85

Entry to check: "CCOc1ncccc1-c1cc(NCc2cc(C)n(C)n2)c2c(n1)c(C)nn2C(C)C"
9.41

----------
target: PDE1C (Homo sapiens (Human), UniProt Q14123); assay: biochemical; format: biochemical; conditions: 15 nM tritium labelled cAMP, 1 hr at room temperature, SPA beads
Sequence (Q14123 whole entry): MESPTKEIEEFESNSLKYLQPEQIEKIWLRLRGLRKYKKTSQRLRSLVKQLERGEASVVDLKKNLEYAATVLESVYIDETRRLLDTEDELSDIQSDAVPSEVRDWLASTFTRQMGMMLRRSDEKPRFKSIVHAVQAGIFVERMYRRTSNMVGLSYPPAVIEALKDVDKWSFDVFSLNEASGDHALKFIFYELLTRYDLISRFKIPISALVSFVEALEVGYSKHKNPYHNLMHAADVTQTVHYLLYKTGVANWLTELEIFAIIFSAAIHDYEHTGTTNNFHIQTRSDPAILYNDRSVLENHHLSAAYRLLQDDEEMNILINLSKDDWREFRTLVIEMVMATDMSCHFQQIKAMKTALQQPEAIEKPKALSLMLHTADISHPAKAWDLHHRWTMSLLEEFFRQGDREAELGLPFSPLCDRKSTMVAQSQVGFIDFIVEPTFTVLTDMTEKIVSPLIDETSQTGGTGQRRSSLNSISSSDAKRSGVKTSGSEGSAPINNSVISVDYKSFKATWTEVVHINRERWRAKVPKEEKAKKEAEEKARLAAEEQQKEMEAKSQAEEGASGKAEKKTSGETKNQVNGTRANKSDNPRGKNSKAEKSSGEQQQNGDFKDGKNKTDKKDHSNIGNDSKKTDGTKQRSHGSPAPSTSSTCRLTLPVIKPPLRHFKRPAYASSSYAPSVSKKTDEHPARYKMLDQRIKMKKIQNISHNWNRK
Binarize IC50 at 30 nM; below is met, at or above is not met.

Does this molecule meet the criterion IC50 < 30 nM? "CCOc1ncccc1-c1cc(NCc2nnn(C)n2)c2c(n1)c(C)nn2C(C)C"
met

Param item: "CCOc1ncccc1-c1cc(NCc2ncc(C)o2)c2c(n1)c(C)nn2C(C)C"
met

What do you get for "CCOc1ncccc1-c1cc(NCc2cnc(C)o2)c2c(n1)c(C)nn2C(C)C" ?
met

Next molecule: "COc1ncccc1-c1cc(NCc2cnc(C)s2)c2c(n1)c(C)nn2C(C)C"
met

Next:
Input "CCOc1ncccc1-c1cc(CCc2ncn(C)n2)c2c(n1)c(C)nn2C(C)C" ; condition: IC50 strictly below 30 nM. Does it hold?
not met

Also, "Cc1nn(C(C)C)c2c(NCc3cnn(C)c3)cc(-c3nccs3)nc12" please.
met

Now the same for "Cc1nn(C(C)C)c2c(NCc3cnn(C)c3)cc(N3CCC3=O)nc12"
not met

Now the same for "CCCOc1ncccc1-c1cc(NCc2cn(C)cn2)c2c(n1)c(C)nn2C(C)C"
met

----------
target: PDE1A (Homo sapiens (Human), UniProt P54750); assay: biochemical; assay type: biochemical
This section presents compounds with their documented log10 of IC50 values.
Give log10 of IC50, with IC50 taken in nM.

Some solved cases for reference:
So what does the record say about log10 of IC50 for "[2H]C([2H])(C)Oc1ncccc1-c1cc(NCc2cccnc2OC)c2c(n1)c(C)nn2C(C)C" ?
1.43

Another compound to look at: "[2H]C([2H])([2H])C([2H])([2H])Oc1ncccc1-c1cc(NCc2cccnc2OC)c2c(n1)c(C)nn2C(C)C"
1.49

Here is the next compound: "CCOc1ncccc1-c1cc(SCc2cnn(C)c2)c2c(n1)c(C)nn2C(C)C"
0.83

Then this compound: "[2H]C([2H])([2H])COc1ncccc1-c1cc(NCc2cccnc2OC)c2c(n1)c(C)nn2C(C)C"
1.38

Would you mind doing "CCOc1ncccc1-c1cc(NCc2cnn(C(F)F)c2)c2c(n1)c(C)nn2C(C)C" as well?
1.86

Further cases:
I'd like to know its log10 of IC50. The compound in question is "CCOc1ncccc1-c1cc(NCc2scnc2C)c2c(cnn2C(C)C)n1"
2.23
